Biological target: NAD(+) hydrolase SARM1 (Homo sapiens)
Sequence (Q6SZW1 whole entry): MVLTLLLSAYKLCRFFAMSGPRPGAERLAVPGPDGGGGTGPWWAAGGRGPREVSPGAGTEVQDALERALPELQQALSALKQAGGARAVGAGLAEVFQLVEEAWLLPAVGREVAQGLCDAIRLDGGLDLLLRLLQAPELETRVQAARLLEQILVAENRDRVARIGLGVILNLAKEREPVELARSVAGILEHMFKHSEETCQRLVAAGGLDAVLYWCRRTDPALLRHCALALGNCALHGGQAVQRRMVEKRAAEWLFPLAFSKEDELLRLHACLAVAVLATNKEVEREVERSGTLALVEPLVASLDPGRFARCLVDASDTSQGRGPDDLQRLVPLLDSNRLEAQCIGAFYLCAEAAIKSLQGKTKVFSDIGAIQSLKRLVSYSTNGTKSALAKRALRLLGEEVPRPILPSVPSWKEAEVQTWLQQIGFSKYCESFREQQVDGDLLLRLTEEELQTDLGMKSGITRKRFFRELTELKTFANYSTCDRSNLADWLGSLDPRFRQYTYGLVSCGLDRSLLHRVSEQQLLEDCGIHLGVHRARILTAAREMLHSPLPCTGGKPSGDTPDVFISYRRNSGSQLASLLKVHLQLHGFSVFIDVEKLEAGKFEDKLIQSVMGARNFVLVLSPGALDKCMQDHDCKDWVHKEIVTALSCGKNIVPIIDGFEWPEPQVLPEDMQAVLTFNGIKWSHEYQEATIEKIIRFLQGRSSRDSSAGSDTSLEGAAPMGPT
Experiment: Inhibition of recombinant human SARM1 TIR domain (561 to 724 residues) expressed in Escherichia coli C43 (DE3) cells lysates using ENAD as substrate preincubated for 20 mins followed by ENAD addition and measured at 15 sec interval for 15 mins
Experimental Endpoint: IC50 (µM)

{"Input Smiles": "NC(=O)N/N=C/c1ccc([N+](=O)[O-])o1", "Experimental Endpoint": "IC50", "Result Unit": "µM", "Reported": 90}
